All values here come from patent US4042695A.

method-description: Catalepsy-inducing effect in rats
Format: in vivo, male Wistar rats
run-parameters: rat, in vivo, sc; rats, s.c.; dose producing catalepsy in 50% of the animals; read-out: Catalepsy ED50 max.
quantity: ED50 (mg/kg)

compound | value
OCCC1CCN(CCCC2c3ccc(F)cc3Sc3ccc(C(F)(F)F)cc32)CC1 (stereo not shown) | 0.21
OCCN1CCN(CCC=C2c3ccc(F)cc3Sc3ccc(C(F)(F)F)cc32)CC1 | 0.12
OCCN1CCN(CCC=C2c3ccc(F)cc3Sc3ccc(Cl)cc32)CC1 | 2
OCCC1CCN(CCC=C2c3ccc(F)cc3Sc3ccc(C(F)(F)F)cc32)CC1 | 0.05

###

method-description: Catalepsy-inducing effect in rats
Format: in vivo, male Wistar rats
run-parameters: rat, in vivo, sc; rats, s.c.; dose producing catalepsy in 50% of the animals; read-out: Catalepsy ED50 max.
Procedure: Reference is made to L. Juluo: "On the Interaction between Neuroleptics and Antiparkinson Drugs." Modern Problems of Pharmacopsychiatry, vol. 5, pg, 50-54. The test may be described as follows: Five animals are used at each dose level. The test compound is injected subcutaneously (s.c.) Injection volume is 5 ml of the vehicle/kg b.w. Except when otherwise stated saline is used as vehicle. […]

compound | ED50
OCCN1CCN(CCCC2c3cc(C(F)(F)F)ccc3Sc3c(Cl)cccc32)CC1 (stereo not shown) [Substance 9, reference compound] | > 20 mg/kg
OCCN1CCN(CCCC2c3ccc(Cl)cc3Sc3ccc(C(F)(F)F)cc32)CC1 (stereo not shown) [Substance 8, reference compound] | > 20 mg/kg
OCCN1CCN(CCCC2c3ccc(C(F)(F)F)cc3Sc3ccc(C(F)(F)F)cc32)CC1 (stereo not shown) [Substance 11, reference compound] | > 20 mg/kg
OCCN1CCN(CCCC2c3cc(C(F)(F)F)ccc3Sc3c2cccc3C(F)(F)F)CC1 (stereo not shown) [Substance 10, reference compound] | > 20 mg/kg

###

method-description: Catalepsy-inducing effect in rats
Format: in vivo, male Wistar rats
run-parameters: rat, in vivo, sc
Mark each entry y if its ED50 sits below 0.1 mg/kg, and n for all others.

molecule | assigned-class
CN(C)CCCN1c2ccccc2Sc2ccc(Cl)cc21 [chlorpromazine, reference compound] | n
OCCN1CCN(CCCC2c3ccc(F)cc3Sc3ccc(C(F)(F)F)cc32)CC1 (centres unmarked) | n
CN1CCN(CC/C=C2/c3ccccc3Sc3ccc(S(=O)(=O)N(C)C)cc32)CC1 [Thiothixene, reference compound] | y
OCCN1CCN(CC/C=C2/c3ccccc3Sc3ccc(C(F)(F)F)cc32)CC1 [α-Flupenthixol, reference compound] | n
OCCN1CCN(CC/C=C2/c3ccccc3Sc3ccc(Cl)cc32)CC1 [α-Clopenthixol, reference compound] | n

###

ED50 values for the compounds below.
method-description: Catalepsy-inducing effect in rats
Format: in vivo, male Wistar rats
run-parameters: rat, in vivo, sc; rats, s.c.; dose producing catalepsy in 50% of the animals; read-out: Catalepsy ED50 max.
quantity: ED50 (mg/kg)

compound | quantity | value
OCCN1CCN(CCCC2c3ccc(F)cc3Sc3ccc(Cl)cc32)CC1 (stereo not drawn) [Substance 3] | ED50 | 2.7
CN(C)S(=O)(=O)c1ccc2c(c1)C(=CCCN1CCC(CCO)CC1)c1ccc(F)cc1S2 [Substance 12] | ED50 | 0.69
CN1CCN(CCCC2c3ccc(F)cc3Sc3ccc(C(F)(F)F)cc32)CC1 (stereo not drawn) [Substance 2] | ED50 | 3.1
CN1CCN(CCC=C2c3ccc(F)cc3Sc3ccc(S(=O)(=O)N(C)C)cc32)CC1 [Substance 5] | ED50 | 1
CN1CCN(CCCC2c3ccc(F)cc3Sc3ccc(S(=O)(=O)N(C)C)cc32)CC1 (stereo not drawn) [Substance 4] | ED50 | 3.1
OCCC1CCN(CCC=C2c3ccc(F)cc3Sc3ccc(Cl)cc32)CC1 [Substance 15] | ED50 | 0.07

###

Tested on: male Wistar rats
method-description: Catalepsy-inducing effect in rats
Assay type: in vivo
run-parameters: catalepsy (rats) / methylphenidate antagonism peak effect (mice)
Protocol: Reference is made to L. Juluo: "On the Interaction between Neuroleptics and Antiparkinson Drugs." Modern Problems of Pharmacopsychiatry, vol. 5, pg, 50-54. The test may be described as follows: Five animals are used at each dose level. The test compound is injected subcutaneously (s.c.) Injection volume is 5 ml of the vehicle/kg b.w. Except when otherwise stated saline is used as vehicle. […]
quantity: Ratio Cat./Meth (catalepsy/methylphenidate antagonism)

compound | tested-on | value
CN1CCN(CCC=C2c3ccc(F)cc3Sc3ccc(S(=O)(=O)N(C)C)cc32)CC1 | male Wistar rats | 2.5
OCCN1CCN(CCCC2c3cc(C(F)(F)F)ccc3Sc3c(Cl)cccc32)CC1 (centres unmarked) [Substance 9, reference compound] | male Wistar rats | 1.5
OCCC1CCN(CCCC2c3ccc(F)cc3Sc3ccc(C(F)(F)F)cc32)CC1 (centres unmarked) | male Wistar rats | 0.8
OCCN1CCN(CC/C=C2/c3ccccc3Sc3ccc(C(F)(F)F)cc32)CC1 [α-Flupenthixol, reference compound] | male Wistar rats | 1.74
CN1CCN(CCCC2c3ccc(F)cc3Sc3ccc(S(=O)(=O)N(C)C)cc32)CC1 (centres unmarked) | male Wistar rats | 3.1
CN(C)CCCN1c2ccccc2Sc2ccc(Cl)cc21 [chlorpromazine, reference compound] | male Wistar rats | 1.0
CN(C)S(=O)(=O)c1ccc2c(c1)C(=CCCN1CCC(CCO)CC1)c1ccc(F)cc1S2 | male Wistar rats | 0.8
OCCN1CCN(CCCC2c3ccc(F)cc3Sc3ccc(Cl)cc32)CC1 (centres unmarked) | male Wistar rats | 3.4

###

Item-by-item account of duration of peak effect
System: NMRI male mice
method-description: Methylphenidate antagonism in mice
Type: in vivo
run-parameters: mice, i.p.
quantity: duration of peak effect

compound | tested-on | value
CN1CCN(CCC=C2c3ccc(F)cc3Sc3ccc(S(=O)(=O)N(C)C)cc32)CC1 | NMRI male mice | > 5 h
CN1CCN(CCCC2c3ccc(F)cc3Sc3ccc(C(F)(F)F)cc32)CC1 (stereo not drawn) | NMRI male mice | > 5 h
OCCN1CCN(CCCC2c3ccc(F)cc3Sc3ccc(Cl)cc32)CC1 (stereo not drawn) | NMRI male mice | > 5 h
OCCN1CCN(CCC=C2c3ccc(F)cc3Sc3ccc(Cl)cc32)CC1 | NMRI male mice | > 5 h
OCCN1CCN(CC/C=C2/c3ccccc3Sc3ccc(Cl)cc32)CC1 [α-Clopenthixol, reference compound] | NMRI male mice | 5 h
OCCN1CCN(CC/C=C2/c3ccccc3Sc3ccc(C(F)(F)F)cc32)CC1 [α-Flupenthixol, reference compound] | NMRI male mice | 6 h

###

Test system: male Wistar rats
method-description: Catalepsy-inducing effect in rats
Format: in vivo
run-parameters: catalepsy (rats) / methylphenidate antagonism peak effect (mice)
quantity: Ratio Cat./Meth (catalepsy/methylphenidate antagonism)

compound | value
OCCN1CCN(CCC=C2c3ccc(F)cc3Sc3ccc(Cl)cc32)CC1 [Substance 7] | 5
CN1CCN(CC/C=C2/c3ccccc3Sc3ccc(S(=O)(=O)N(C)C)cc32)CC1 [Thiothixene, reference compound] | 0.14
OCCN1CCN(CC/C=C2/c3ccccc3Sc3ccc(Cl)cc32)CC1 [α-Clopenthixol, reference compound] | 0.7
OCCC1CCN(CCC=C2c3ccc(F)cc3Sc3ccc(Cl)cc32)CC1 [Substance 15] | 0.9
CN1CCN(CCCC2c3ccc(F)cc3Sc3ccc(C(F)(F)F)cc32)CC1 (stereo not drawn) [Substance 2] | 10
OCCN1CCN(CCCC2c3ccc(Cl)cc3Sc3ccc(C(F)(F)F)cc32)CC1 (stereo not drawn) [Substance 8, reference compound] | > 5
